Would you mind telling me the reported switch fluorescence ratio of each entry?
# Test system: ATP;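 note: ATP exposure 15 min at 22 °C before imaging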
# ASSAY TEXT: switch fluorescence ratio, 500 uM ATP over buffer (Cy3 cluster intensity, sum of 5 cycles each) (fold (ratio)); higher = stronger signal-on switching upon ATP binding; sequences stand for … in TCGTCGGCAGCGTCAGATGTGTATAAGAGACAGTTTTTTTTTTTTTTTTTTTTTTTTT…TC
# CONDITION NOTES: aptamer strand: ATP DNA aptamer (quencher-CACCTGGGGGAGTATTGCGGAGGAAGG + anchor), 100 nM annealed; ATP concentration: 500 uM
A bare number is all that is needed in reply.

q: Given AGGATCGTCA , state its recorded switch fluorescence ratio.
a: 0.989

q: Given GTTGCTTTGG , state its recorded switch fluorescence ratio.
a: 1.04

q: Given CCCGCATGAT , state its recorded switch fluorescence ratio.
a: 5.66

q: Given TCAATTTGGG , state its recorded switch fluorescence ratio.
a: 0.971

q: Given TGTTAAAGGG , state its recorded switch fluorescence ratio.
a: 1.03

q: Given AGTAACCGGC , state its recorded switch fluorescence ratio.
a: 0.967

q: Given TATGGGCGCG , state its recorded switch fluorescence ratio.
a: 1.11

q: Given GGGCTAGATG , state its recorded switch fluorescence ratio.
a: 1

q: Given TTGGATGCGG , state its recorded switch fluorescence ratio.
a: 1

q: Given GGCTAATGGG , state its recorded switch fluorescence ratio.
a: 1.02

q: Given GTATGCCGTC , state its recorded switch fluorescence ratio.
a: 0.988

q: Given CTTGAATACT , state its recorded switch fluorescence ratio.
a: 1.05

q: Given TTATGCGGTG , state its recorded switch fluorescence ratio.
a: 1.02

q: Given GGGTATAGGA , state its recorded switch fluorescence ratio.
a: 0.944

q: Given CCTATTCCGG , state its recorded switch fluorescence ratio.
a: 1.05

q: Given TTGGGTCTTC , state its recorded switch fluorescence ratio.
a: 0.974

q: Given ATTATTTTTT , state its recorded switch fluorescence ratio.
a: 1.02

q: Given TAAAGAACCA , state its recorded switch fluorescence ratio.
a: 1.02

q: Given CAAGGGCGGC , state its recorded switch fluorescence ratio.
a: 0.973

q: Given TTTTCTTAGT , state its recorded switch fluorescence ratio.
a: 0.974
